Data origin: the supplement of paper PMC10567573

B1: CPXM2 (parent)
chain: TASTKNCMVGYDMGATRCDFTLSK

- Variants of: B1
- Test Protocol: protein stability index of a GFP-peptide fusion (GPS, HEK-293T) (PSI 1-6); higher = more stable;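 further: lentivirally expressed fusions sorted by FACS into six bins by GFP to DsRed ratio, PSI derived from sequencing read proportions per bin multiplied by bin number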
- Condition Description: c terminus: a fixed tail appended
Binned protein stability index; ranges: b0 (below 2), b1 (2 to below 3), b2 (3 or more)

Some solved cases for reference:
{"Sequence String": "TASTKNCQVGYDMGATRCDFTLSK", "Assigned Label": "b1"}
{"Sequence String": "MASTKNCMVGYDMGATRCDFTLSK", "Assigned Label": "b1"}
{"Sequence String": "TASTKNCMVGYPMGATRCDFTLSK", "Assigned Label": "b1"}

Which protein stability index category applies to `TASTKNCMVGYDMGATTCDFTLSK` here? b2

Again, but for `TASTKNCMVGYDMGATRCDFTLTK` b0

Please do the same for `TASTQNCMVGYDMGATRCDFTLSK` as well. b1

Please give the result for `TASTKNCMVGYDMGATRPDFTLSK` too. b2

Here is the next variant: `TASTKWCMVGYDMGATRCDFTLSK` b1

Also check `TASTKNCMVGYDMGATRCDKTLSK` b2

Can you handle `TASTKNCMVGYDMGATRCDFTASK` next? b1

Same read-out for `TASTKNCMSGYDMGATRCDFTLSK` ? b1

Here is the next variant: `TASTKGCMVGYDMGATRCDFTLSK` b1

Param item: `TASTKNCMVGYDMGATRCDFWLSK` b0

Moving on to `TASTKNCMVGYQMGATRCDFTLSK` b1

Moving on to the next variant: `TASTKNCMVGYFMGATRCDFTLSK` b0

Please do the same for `TASTKNCMVGGDMGATRCDFTLSK` as well. b2
